- ASSAY DETAILS: Quantitative High-Throughput drug screen in 47 multiple myeloma cell lines against the NCATS MIPE library collection: PCM6_Riken cell viability assay (AID 1919870); note: nearly all actives have a fitted effect of over 30% in size
- ASSAY CONTEXT: CellTiter-Glo ATP, 48 h; series mostly up to 45.8 µM
Results filed as inconclusive are left out. Activity calls are given as the source filed them. Calls come from the whole dose curve; as a rule, active = well fitted cell-killing curve with a large enough effect; inconclusive = small, poorly fitted or top-dose-only effect, or effect the other way; inactive = no such curve, though single readings can be large or run the other way.
Outcome field: choose from yes (active), no (inactive)

Illustrative cases are given below, each with its answer.
MOLECULE: CN(C)CCOc1cc(-c2cn[nH]c2)ccc1NC(=O)C1COc2ccccc2O1 (stereo not given)
GROUP: yes

MOLECULE: Cc1cccc(-c2[nH]c(C(C)(C)C)nc2-c2ccc3c(c2)OCO3)n1
GROUP: yes

MOLECULE: N#CC(c1ccc(Cl)cc1)c1c(Cl)cc(-n2ncc(=O)[nH]c2=O)cc1Cl (stereo not given)
GROUP: yes

MOLECULE: COc1ccc2c(c1)c(C1=C(c3c[nH]c4ccccc34)C(=O)NC1=O)cn2CCCN(C)C
GROUP: yes

MOLECULE: O[C@@H](COc1cccc2ncccc12)CN1CCN(C2c3ccccc3[C@@H]3[C@H](c4ccccc42)C3(F)F)CC1 (stereo not given in full)
GROUP: yes

Recorded call for C[C@@]1(c2cc(-c3cncnc3)c(F)cc2F)CCSC(N)=N1 ?
yes

Recorded call for CN(C)c1ccc(-c2nc3ncc(Cl)c(N4CCN(CC(=O)Nc5nccs5)CC4)c3[nH]2)cc1 ?
no

---

- ASSAY DETAILS: Quantitative High-Throughput drug screen in 47 multiple myeloma cell lines against the NCATS MIPE library collection: KMS12BM_JCRB cell viability assay (AID 1918971); note: nearly all actives have a fitted effect of over 35% in size
- ASSAY CONTEXT: KMS12BM myeloma viability, CellTiter-Glo ATP, 48 h; series mostly up to 45.8 µM
Results filed as inconclusive are left out. Calls of active or inactive are those of the source. The call rests on the fitted dose curve; in most records, active means well fitted cell-killing curve with a large enough effect; inconclusive means small, poorly fitted or top-dose-only effect, or effect the other way; inactive means no such curve, though single readings can be large or run the other way.
Outcome field: choose from T = active, F = inactive

Illustrative cases are given below, each with its answer.
COMPOUND: C[C@@H]1CC=CC=CC=CC=C[C@@H](O[C@@H]2O[C@H](C)[C@@H](O)[C@H](N)[C@H]2O)C[C@@H]2O[C@](O)(C[C@@H](O)C[C@@H]3O[C@@H]3C=CC(=O)O1)C[C@H](O)[C@@H]2C(=O)O
GROUP: T

COMPOUND: Cn1c(=O)c(Oc2ccc(F)cc2F)cc2cnc(NC3CCOCC3)nc21
GROUP: T

COMPOUND: CCN(CC)CCCCNc1nc2cc(Cl)c(Cl)cc2nc1-c1ccc(-c2cccs2)s1
GROUP: T

COMPOUND: CNc1nc(Nc2ccc(C(=O)N3CCOCC3)cc2OC)ncc1Cl
GROUP: T

COMPOUND: Cc1[nH]c(C=C2C(=O)Nc3ccc(S(=O)(=O)N(C)c4cccc(Cl)c4)cc32)c(C)c1C(=O)N1CCN(C)CC1
GROUP: T

COMPOUND: Nc1ccc(-c2ccc3ncc4ccc(=O)n(-c5cccc(C(F)(F)F)c5)c4c3c2)cn1
GROUP: T

COMPOUND: CCOC(=O)N1c2ccc(C(F)(F)F)cc2[C@@H](N(Cc2cc(C(F)(F)F)cc(C(F)(F)F)c2)C(=O)OC)C[C@H]1CC
GROUP: T

COMPOUND: CN(C)c1ccccc1CN1CCCN(Cc2ccccc2N(C)C)C1c1ccncc1
GROUP: T

Recorded call for CC(C)CN(C[C@@H](O)[C@H](Cc1ccccc1)NC(=O)O[C@H]1CO[C@H]2OCC[C@H]21)S(=O)(=O)c1ccc(N)cc1 ?
T

Recorded call for FC(F)(F)c1ccc(C=Cc2nc(COc3ccc(CCCCn4ccnn4)cc3)co2)cc1 ?
T

Recorded call for CC1=C[C@@H]2[C@@H]([C@@H](O)C[C@@]3(C)[C@H]2C[C@@H](C)[C@]3(O)C(=O)CO)[C@@]2(C)Cc3cnn(-c4ccccc4)c3C=C12 ?
T

---

- ASSAY DETAILS: qHTS profiling of the MIPE4 collection as inhibitors of Plasmodium falciparum (DD2) proliferation (Rep 2) (AID 743346)
- ASSAY CONTEXT: P. falciparum Dd2 in erythrocytes, SYBR Green DNA, 72 h; at 28.5 µM (top of the series) unless noted
We begin with a simple list: items and their reported parasite growth, % of control (lower = inhibition).
Supply the numeric figure in %, leaving out any unit text.

// known answers, use as guide
MOLECULE: Cc1c(C(=O)Nc2ccc(N3C[C@@H](C)O[C@@H](C)C3)nc2)cccc1-c1ccc(OC(F)(F)F)cc1
SCALE UNIT: %
ENDPOINT RESULT: 54.1
--
MOLECULE: CC1=C(CC(=O)O)c2cc(F)ccc2C1=Cc1ccc(S(C)=O)cc1 (stereo not given)
SCALE UNIT: %
ENDPOINT RESULT: 64.2
--
MOLECULE: CCC(C)SSc1ncc[nH]1 (stereo not given)
SCALE UNIT: %
ENDPOINT RESULT: 89.6
--
MOLECULE: NCC1CCC(C(=O)O)CC1 (stereo not given)
SCALE UNIT: %
ENDPOINT RESULT: 104
--
MOLECULE: COC(=O)Nc1ccc(-c2nc(N3CCOCC3)c3cnn(C4CCN(C(=O)OC)CC4)c3n2)cc1
SCALE UNIT: %
ENDPOINT RESULT: 27.4

Please look at this molecule and report its parasite growth, % of control (lower = inhibition): C[C@@H](N)c1ccc(C(=O)Nc2ccnc3[nH]ccc23)cc1
49.3

Please look at this molecule and report its parasite growth, % of control (lower = inhibition): CCNC(=O)CCCC=CC[C@@H]1[C@H](C=CC(O)CCc2ccccc2)[C@@H](O)C[C@@H]1O (stereo not given in full)
60.3

Please look at this molecule and report its parasite growth, % of control (lower = inhibition): C=C[C@@H]1CN2CCC1C[C@@H]2C(O)c1ccnc2ccc(OC)cc12 (stereo not given in full)
12

Please look at this molecule and report its parasite growth, % of control (lower = inhibition): CCCCCCCCCCCCCC(=O)N[C@H](CO)[C@H](O)c1ccc([N+](=O)[O-])cc1
33

Please look at this molecule and report its parasite growth, % of control (lower = inhibition): CCNC(=O)Nc1ccc(Oc2ncnc(N)c2C=NOC)cc1Cl
67

Please look at this molecule and report its parasite growth, % of control (lower = inhibition): CC1(C)CC(=O)c2c(C(F)(F)F)nn(-c3ccc(C(N)=O)c(NC4CCC(O)CC4)c3)c2C1 (stereo not given)
13

Please look at this molecule and report its parasite growth, % of control (lower = inhibition): C=C1c2cccc(O)c2C(O)=C2C(=O)[C@@]3(O)C(O)=C(C(N)=O)C(=O)[C@@H](N(C)C)[C@@H]3[C@@H](O)[C@H]12
24.1

Please look at this molecule and report its parasite growth, % of control (lower = inhibition): COc1c(C)c2c(c(O)c1CC=C(C)CCC(=O)O)C(=O)OC2
13.7

Please look at this molecule and report its parasite growth, % of control (lower = inhibition): N=C1SC(=Cc2ccc(-c3ccc4c(c3)C(=O)NC4=O)o2)C(=O)N1c1ccc(Br)cc1
30.9

Please look at this molecule and report its parasite growth, % of control (lower = inhibition): CC(C)CN(C[C@H](O)[C@H](Cc1ccccc1)NC(=O)O[C@H]1CCOC1)S(=O)(=O)c1ccc(N)cc1
56.3

Please look at this molecule and report its parasite growth, % of control (lower = inhibition): COC(=O)N1CCN(Cc2cccc(NC(=O)Nc3ccc(C)nc3)c2F)CC1
41.1

Please look at this molecule and report its parasite growth, % of control (lower = inhibition): O=C(Nc1ccc(OC(F)(F)F)cc1)c1sccc1NCc1ccnc2ccccc12
82.6

---

- Tested on: CRL-7250
- ASSAY DETAILS: Cytotoxic Profiling of Annotated Libraries Using Quantitative High-Throughput Screening (AID 1296008); note: nearly all actives have a fitted effect of over 60% in size
- ASSAY CONTEXT: Five cell lines viability, CellTiter-Glo ATP luminescence, 48-72 h
Records with an inconclusive call do not appear. The source made the active and inactive calls. Calls follow the shape of the dose curve; as a rule, active = well fitted inhibition curve with a large enough effect; inconclusive = small, poorly fitted or top-dose-only effect; inactive = flat fitted curve, though single readings scatter.
Outcome field: choose from YES (active), NO (inactive)

CHEM SMILES: COc1cc2nccc(Oc3ccc(NC(=O)Nc4cc(C)on4)c(Cl)c3)c2cc1OC
GROUP: YES
//
CHEM SMILES: CCC(=O)N1CCN(c2ccc(-n3c(=O)ccc4cnc5ccc(-c6cnc7ccccc7c6)cc5c43)cc2C(F)(F)F)CC1
GROUP: YES
//
CHEM SMILES: CN1CCC(COc2cnc(-c3cccc(Cn4nc(-c5cccc(C#N)c5)ccc4=O)c3)nc2)CC1
GROUP: NO
//
CHEM SMILES: Cc1cc(CS(=O)(=O)c2ccccc2)cc(OCc2ccc(CN3CCC[C@H]3CO)cc2)c1
GROUP: YES
//
CHEM SMILES: Nc1ncnc2c1ncn2[C@@H]1O[C@H](CO)[C@@H](O)[C@@H]1O
GROUP: NO

// switching to the query molecule
Recorded call for CN[C@@H]1[C@@H](O)[C@@H](O[C@@H]2[C@@H](O)[C@H](O[C@H]3O[C@H](CN)[C@@H](O)[C@H](O)[C@@H]3O)[C@@H](N)C[C@@H]2NC(=O)[C@@H](O)CN)OC[C@]1(C)O ?
NO
